Measurement Notes: Inhibition of Escherichia coli DNA polymerase 1 Klenow fragment preincubated for 15 mins followed by addition of DNA substrate for 60 mins in presence of dNTPS/TAMRA tracer by fluorescence polarization assay
pIC50: −log10 of the molar value.
Measurement Label: pIC50

Nc1ncnc2c1ncn2[C@H]1CC[C@@H](COP(=O)(O)OP(=O)(O)OP(=O)(O)O)O1 [DDA-TRIPHOSPHATE]
4.57

The reported numbers originate from ChEMBL document CHEMBL4431345.
